experimental.system: human muscarinic M1 receptor (Homo sapiens, UniProt P11229)
Sequence (P11229 1-460): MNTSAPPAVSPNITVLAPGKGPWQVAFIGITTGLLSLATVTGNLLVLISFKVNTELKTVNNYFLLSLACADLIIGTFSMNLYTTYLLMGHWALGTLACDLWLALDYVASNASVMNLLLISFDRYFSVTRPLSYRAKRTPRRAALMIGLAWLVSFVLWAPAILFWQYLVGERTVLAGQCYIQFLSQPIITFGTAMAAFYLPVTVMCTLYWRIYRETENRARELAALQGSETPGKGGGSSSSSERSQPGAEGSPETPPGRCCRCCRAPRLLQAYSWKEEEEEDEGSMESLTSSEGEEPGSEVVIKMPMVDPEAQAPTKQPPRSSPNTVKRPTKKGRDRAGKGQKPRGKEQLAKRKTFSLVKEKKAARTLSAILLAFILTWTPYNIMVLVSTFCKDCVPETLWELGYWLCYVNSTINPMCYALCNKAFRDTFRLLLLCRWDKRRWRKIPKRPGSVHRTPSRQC
experimental.details: Alphascreen Surefire phospho-ERK1/2 functional assay, M1
Type: cell-based
measurement.conditions: CHO, read-out: % Emax cf. ACh, M1, CHO cells stably expressing human M1; relative to ACh
measured.quantity: Emax (%)

Sample records with Emax:
| compound | measured.quantity | observed.measurement |
| --- | --- | --- |
| CCOC(=O)N1CCC2(CC(N3CCC(N4CCCNC4=O)CC3)C2)C1 (single isomer, unassigned) [4-8 Isomer 1] | Emax | 42 |
| CCOC(=O)N1CCC2(CC(N3CCC(C4CCCN4C)CC3)C2)C1 (single isomer, unassigned) [2-22 Isomer 2] | Emax | 7 |

A: CCOC(=O)N1CCC2(CC(N3CCC(c4ncns4)CC3)C2)C1 (single isomer, unassigned) [1-30 Isomer 2]
B: CCOC(=O)N1CCC2(CC(N3CCC(N4CC(F)(F)C[C@H]4C(=O)NC)CC3)C2)C1 (single isomer, unassigned) [2-93 Isomer 2]
C: CCOC(=O)N1CCC2(CC(N3CCC(N4CCC[C@@H]4c4cccs4)CC3)C2)C1 (single isomer, unassigned) [2-131 Isomer 2]
D: CCOC(=O)N1CCC2(CC(N3CCC(N4CC[C@@H](F)C4)CC3)C2)C1 (single isomer, unassigned) [2-98 Isomer 2]
E: CCOC(=O)N1CCC2(CC(N3CCC(c4ccc[nH]c4=O)CC3)C2)C1 (single isomer, unassigned) [3-2 Isomer 1]
[in] Place the items in sequence of falling Emax. Order the labels as requested and give them as your answer.
[out] E, C, A, D, B
(E: 97%, C: 61%, A: 37%, D: 10%, B: 7%)

P: CCOC(=O)N1CCC2(CC(N3CCC(N4CCC(F)(F)C4)CC3)C2)C1 (single isomer, unassigned) [2-100 Isomer 2]
Q: CCOC(=O)N1CCC2(CC(N3CCC([C@@H]4CCCN4CC(=O)OC)CC3)C2)C1 (single isomer, unassigned) [2-72 Isomer 2]
[in] Min Emax? P | Q Your answer should be the label attached to the chosen record.
[out] P
(P: 16%, Q: 30%)

----------
experimental.system: human muscarinic M4 receptor (Homo sapiens)
Construct: expressed in transfected cells
Sequence (P08173 whole entry): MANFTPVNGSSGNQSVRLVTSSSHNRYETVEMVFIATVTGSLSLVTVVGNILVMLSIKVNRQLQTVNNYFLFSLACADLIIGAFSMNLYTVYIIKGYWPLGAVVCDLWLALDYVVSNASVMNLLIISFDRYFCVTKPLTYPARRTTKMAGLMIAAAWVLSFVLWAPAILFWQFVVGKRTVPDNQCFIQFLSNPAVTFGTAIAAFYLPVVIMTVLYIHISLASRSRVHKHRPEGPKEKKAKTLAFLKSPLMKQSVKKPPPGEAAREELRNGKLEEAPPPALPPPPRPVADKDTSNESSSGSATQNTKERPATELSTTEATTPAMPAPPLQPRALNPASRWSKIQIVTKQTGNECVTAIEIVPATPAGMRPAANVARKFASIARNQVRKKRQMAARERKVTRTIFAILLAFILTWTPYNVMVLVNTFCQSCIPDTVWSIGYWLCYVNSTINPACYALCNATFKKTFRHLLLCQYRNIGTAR
experimental.details: Alphascreen Surefire phospho-ERK1/2 functional assay, M4
Type: cell-based
measurement.conditions: CHO, read-out: % Emax cf. ACh, M4, CHO cells stably expressing human M4; relative to ACh
measured.quantity: Emax (%)

| molecule | Emax / % |
| --- | --- |
| [2H]C([2H])([2H])C([2H])([2H])OC(=O)N1CCC2(CC(N3CCC(c4ccnn4C)CC3)C2)C1 (single isomer, unassigned) [1-73 Isomer 2] | 72 |
| CCOC(=O)N1CCC2(CC(N3CCC([C@H]4CCCN4C(=O)OC)CC3)C2)C1 (single isomer, unassigned) [2-13 Isomer 2] | 57 |
| CCOC(=O)N1CCC2(CC(N3CCC([C@@H]4CCCN4C(=O)OCCF)CC3)C2)C1 (single isomer, unassigned) [2-47 Isomer 2] | 63 |
| CCOC(=O)N1CCC2(CC(N3CCC([C@@H]4CCCN4C(=O)N4CCOCC4)CC3)C2)C1 (single isomer, unassigned) [2-28 Isomer 2] | 63 |
| CCOC(=O)N1CCC2(CC(N3CCC(c4c(C)ccnc4OC)CC3)C2)C1 (single isomer, unassigned) [3-11 Isomer 2] | 58 |

The reported measurements were obtained from patent US9926297B2.
